Test: yeast display, Sf9 membrane polyspecificity reagent, FACS + sequencing; frameworks hold sequencing errors
Recorded metric: polyreactivity (PSR sort gate)

# Biosequence, polyreactivity (PSR sort gate)
rows = [
    ("QDQLVESGGGLVQAGGSLRLSCAASGSNFPTNAMGWYRPAPGKERELVADITIRGGGTSYADSVKGRFTISRDNAKNTVYLHMNSLKPEDTAFYYCARSKSTELKRLLFDSWGQGTQVTVSS", "low polyreactivity"),
    ("QVQLVESGGGLVQAGGSLRLSCAASGITFVVYTMGWYRQAPGKERELVASISISGDSTNYAESVKGRFTISRDNAKNTVYLQMNILKPEDTAVYYCNAAFYHVQFPWIAYEYWGQGTQVTVSP", "low polyreactivity"),
    ("QVQLVESGGGLVQAGGSLRLSCAASGRIFKYNAMGWSIQAPGKERELVAAISSGGSTKYADSVKGRFTISRDNAKNTVYLQMNSLKPEDTAVYYCNAVYTPYRRSFYYWGHGTQVTVSS", "high polyreactivity"),
    ("QVQLVESGGGLVQAGGSLRLICAASGFIFYYYAMGWYRQAPGKERQVVAAITWSGGITYYADSVKGRFTISRDNAKNTVYLQMISMKPEDTAVYYCATGYEYYGYSGSRRDYWGQGTQVTVSS", "low polyreactivity"),
    ("QVQHVESGGGLVQAGVSLRLSCAASGFTFYNYAMGWYRQAPGKERELVAAITSSGTSTYYADSVKGRFTISRDNAKNTVYLQMNSLKPEDTAVYYCNAVSSYYYSYDYWGQGTQVTVSS", "low polyreactivity"),
    ("QVQLVESGGALVQAGGSLRVSCAASGFIFYGYAMGWYRQAPGKERELVAAISSGGGRTYYADSVKGRFTISRDNAKNTVYLQMNSLKPEDTAVYYCAAKVYYYTGGGGEDYWGQGTQVTVSS", "low polyreactivity"),
    ("QVQLVESGGGLVQAGGSLRLRCAAYGSNFVLNAMGLDRKAPGKERELVAAISRGGASTYYADSVKGRFTIARDNSKNTVYLQMTSLKPEDTAVYYCNASGYGQGVVIYLVLYDYWGQGTQVTVSS", "low polyreactivity"),
    ("QIQLEESGGGLVQAGGSLRLSCAASGSIFSVYAMGWYRQAPGKERELVATISTGGSTYYADSVKGRFTISRDNAKNTVYLQMNSLKPEDTAVYYCNAQFTPRYWGGYDSWGQGTQVTVSS", "low polyreactivity"),
]

Note polyreactivity (PSR sort gate) for the sequence shown: QVQLVESGGGLVQAGGSLRLSCAASGSTFRHNAMGWYRQAPGKERELVATIRTSGGTTYYADSVKGRFTISRDNAKNTVYLQMNSLKQEDTAVYYCAAVSYLFLYQGYPIAYPMYYWGQGSQVTVSS low polyreactivity

Note polyreactivity (PSR sort gate) for the sequence shown: QVQLDESGGGLVQAGGSLRLSCAASGHIFFYYTMGWSRQAPRKEREFVAGITIGGSTNYADSVKGRFTISRDNAKYTVYLQKNSLKPEDTAVYYCNVVTYVYIYSYWEYYYWGQGTQVTVSS low polyreactivity

Note polyreactivity (PSR sort gate) for the sequence shown: QVQLVESGGGLVQAGGSLRLSCAASGGTFAIYAMGWYRQAPGKYRELVASINSGGSTNNADSVKGRFTISRDNAKNTVYFQLNLLKPEDTAVYYCNRGYLGYFRYDYWGQGTQVTVSS high polyreactivity

* * *

Assay: yeast display, Sf9 membrane polyspecificity reagent, FACS + sequencing; frameworks hold sequencing errors
Recorded metric: polyreactivity (PSR sort gate)

Look over these answered cases.
# Biosequence, polyreactivity (PSR sort gate)
measured = [
    ("QVQLVESGGGLVQAGGSLRLSCAASGRILAYYAMAWYRQAPGKERELVAAITSGGGSTYYADSVKGRFTISRDNAKNTVYLQMNSLKPEDTAVYYCAADAYVSSQPMDYWGQGSQVTVSS", "high polyreactivity"),
    ("QVQLVESGGGLVQAGGSLRLSCAASGSIFVVYAMGWYRQPPGKERELVAAIDSGGSTYYADSVKGRFTISRDNAKNTVYLQLNSLKPEDTAVSYCADDGSTWGDYRTYGYWGQGTQVTVSS", "low polyreactivity"),
    ("QVQLVESAGGLVQAGGSLRLSCAASGFIFDVYAMGWYRQAPGKERELVAAISVSSTNYADSVKGRFTISRDNAKNTVYLQMNSLKPEDTAVYYCAADTYTYFLASYLYGQYDYWGQGTQVTVSS", "low polyreactivity"),
    ("QVQLVESGGGLVQAGGSLRLSCAASGRIFGFYAMGWYRQAPGKERELVAVISNGGGSTYYADSVKGRFTISRDNAKNTVYLQMTSLKPEDTAVYYCAVALKYPRRYYYWGQGTQVTVSS", "high polyreactivity"),
    ("QVQLEESGGCLVQAGGSLRLSCAASGITFYVYAMGWSRQAPGKERELVAAISSSGGSTYYADSVTGRFTISRDNAKNTGALQMNSLKPEDTAVYYCPADKCFYYGRKYGKYDYWGQGTQVTVSS", "high polyreactivity"),
]

Note polyreactivity (PSR sort gate) for the sequence shown: QVQLVESGGGLVQAGGSLRLSCAASGGTFRRYTMGWYRQAPGKERELVAVISRSGGSTYYADSVKGRFTISRDNAKNTVYLQMNSLKPEDTAVYYCAVVYYNGYDWGQGTQVTVSS high polyreactivity

Note polyreactivity (PSR sort gate) for the sequence shown: QVQLVESGGGLVQAGGSLRLSCAASGSIFYSNAMGWYRQAPGKERELVAAISWSGGSTYYADSVKGRFTISRDYAKNTVYLQMNSLKPEDTAVYYCAASYDIYYYDAASLDDYDYWGQGTQVTVSS low polyreactivity

Note polyreactivity (PSR sort gate) for the sequence shown: QVQLVESGGGLVQAGGSIRLTCAASGRIYEIYTMGWYRQATGKETEFVAGITWSGGSTYYADSVKGRFTISRDNAKNTFYLQMNSLKPEDTAVYYCATDEVYWTGYAPSLFDYWGQGTQVTVSS low polyreactivity

Note polyreactivity (PSR sort gate) for the sequence shown: QVQLVESGGGLVQAGGSLRLSCAASGRTFRTNAMGWYRQAPGKESELVADITYSGDSTYDADSVKGRFTISRDNAKNNVYLQMNSLKPEDTAVYYCNARLLSGPGYDYWGQGTQVTVSS low polyreactivity

* * *

Experiment: yeast display, Sf9 membrane polyspecificity reagent, FACS + sequencing; frameworks hold sequencing errors
Recorded metric: polyreactivity (PSR sort gate)

# Biosequence, Data value
rows = [
    ("QVQLVESGGGLVQAGGSLRLSCAASGLTFYGNAMGWYRQAPGKETELVADISLSGGRTFYADSVKGRFTISRDNAKNTVYLQMNSLKPEDTAVYYCAKTYTSGYHRRYDYWGQGTQVTVSS", "low polyreactivity"),
    ("QVKLVESGGGLVPAGGSLRLSCAASGNIFVNYAMRWYRQAPGKERELVASINYNGGITYYADSVKGRFTISRDNAKNTVYLQMNSLKPEDTAVYDCDKDGGGLLRWYTDEYDYWGQGTQVTVSS", "low polyreactivity"),
]

* * *

Assay: yeast display, Sf9 membrane polyspecificity reagent, FACS + sequencing; frameworks hold sequencing errors
Recorded metric: polyreactivity (PSR sort gate)

# Biosequence, polyreactivity (PSR sort gate)
data = [
    ("QVQLVESGGGLVQAGGSLRLSCAASGFTFRRYAMGWYRQAPGKEREFVAAITTRGSNTYYADSVKGRFTISRDNAKNTVYLQMNSLKPEDTAVYYCAASYYPPGHYDYWGQGTQVTVSS", "high polyreactivity"),
    ("QVQLVESGGGLVQAGGSLRLSCAASGSTFYGNAMGWYRQAPGKERELVATIDSTAGTNYADSVKGRFTISRDNAKNTVYLQMNSLKPEDTAVYYCAREYSIYNPPGYLGTVEYDYWGQGTQVTVSS", "low polyreactivity"),
    ("QDQLVESGGGLVQAGGSLRLSCAASGRIFGINAMGWYIPAPGKERELVAAINWSGGSTYYADSVKGRFTISRDNAKNTVYLQMNSLKPEDTAVYYCATYQAGYYQSTYDYWGPGTQVTVSS", "high polyreactivity"),
    ("QVHLVESGGGLVQAGGRLRLSCAASGFTYYRYTMGWYRQAPGKERELVAAISWNGGRTYYADSVKGRFTISRDNAKNTVYLQMNSLKPEDTAVYYCAAVQHYTNRYPAVDYWGQGTQVTVSS", "high polyreactivity"),
    ("QVQLVESGGGLVQAGGSLRLSCAASGRTCYSNAMGWYRQAPGKERELVAAITRGASTKYADSVKGRFTISRDNAKNTVYLQMNSLKPEDTAVYYCATARYPRYIYDYWGQGTQVTVSS", "low polyreactivity"),
]

Note polyreactivity (PSR sort gate) for the sequence shown: QVQLVESGGGLVQAGGSLRLSCAASGITFINYDMGWYRQAPGKERELVAAISQIGTSTYYADSVKGRCTISRDNAKNTVYLQMNSLKPEDTAVYYCNARYISTGFRYNYWGQGTQVTVSS high polyreactivity

Note polyreactivity (PSR sort gate) for the sequence shown: QVQLVESGGGLVQAGGSLRLSCAASGRIFGSYAMGWYRQAPGKERELVATISRRGGSTYYADSVKGRFTISRDNAKNTVYLQMNRLKPEDTAVYYCNADYKITKTWSGTIRYYYWGQGTQVTVSS high polyreactivity

Note polyreactivity (PSR sort gate) for the sequence shown: QVHLVESGGGLVQAGGSLRLSCAASGSTFYVNAMGWDRQAPGKERELVAAIRSSGRTNYADSVKGRFTISRDNAKNTVYLQMNSLKPEDTAVYYCAAEVPHWPYYGRLHDRDYWGQGTQVTVSS low polyreactivity

Note polyreactivity (PSR sort gate) for the sequence shown: QVQLVESGGGLVQAGGSLRLSCAASGINLFYYAMGWYIQAPGKETDFVAAISWSGGSTYYADSVKGRFTISRDNAQNTVYLQMNSLKPEDTALYYCAAKWYSYRWTQFDYWGQGTQVTVSS high polyreactivity

Note polyreactivity (PSR sort gate) for the sequence shown: QVQLVESGGGLVQAGGSLRLSCAASGATFYLNDMGWYREAPGKERELVAAIDWSGGSTYYADSVKGRFTISRDNAKNTVYLQMNSLKPEDTAVYYCAARLVYEWRRLDYFIAWDYCGQGTQVTVSS low polyreactivity

Note polyreactivity (PSR sort gate) for the sequence shown: QGQLVESGGGLVQAGGSLRLSCAASGSIFVINAMGWYRQAPGKERELVAAIDWGGDTTYYADSVKGRFTISRDNAKNTVYLQMNSLKPEDSAVYYCAAGYYLRRYYYWGQGTQVTVSS high polyreactivity
